experimental-target: CYP3A4 (Homo sapiens, UniProt P08684)
Sequence (P08684 whole entry): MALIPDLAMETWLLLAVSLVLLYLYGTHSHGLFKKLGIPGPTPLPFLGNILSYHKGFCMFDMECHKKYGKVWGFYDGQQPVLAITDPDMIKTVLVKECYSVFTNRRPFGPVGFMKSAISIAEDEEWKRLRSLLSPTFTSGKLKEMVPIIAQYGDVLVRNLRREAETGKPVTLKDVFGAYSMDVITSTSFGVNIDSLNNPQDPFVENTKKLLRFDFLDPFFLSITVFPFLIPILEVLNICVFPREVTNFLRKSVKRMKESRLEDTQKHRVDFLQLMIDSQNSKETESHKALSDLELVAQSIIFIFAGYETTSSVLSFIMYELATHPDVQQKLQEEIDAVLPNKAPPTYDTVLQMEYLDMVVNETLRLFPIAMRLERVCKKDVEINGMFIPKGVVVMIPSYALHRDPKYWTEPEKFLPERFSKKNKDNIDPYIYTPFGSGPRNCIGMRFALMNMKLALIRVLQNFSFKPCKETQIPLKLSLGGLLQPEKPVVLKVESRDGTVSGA
assay-protocol: in vitro
Assay type: in vitro ADME
condition: human
test-readout: kinact (s⁻¹)
Answers are plain numbers, in s⁻¹.

Assign kinact to the following record: CC#CC(=O)N1CCC[C@H]1c1nc(-c2ccc(C(=O)Nc3ccccn3)cc2)c2c(N)nccn12
0.000308

----------
experimental-target: CYP2C9 (Homo sapiens, UniProt P11712)
Sequence (P11712 whole entry): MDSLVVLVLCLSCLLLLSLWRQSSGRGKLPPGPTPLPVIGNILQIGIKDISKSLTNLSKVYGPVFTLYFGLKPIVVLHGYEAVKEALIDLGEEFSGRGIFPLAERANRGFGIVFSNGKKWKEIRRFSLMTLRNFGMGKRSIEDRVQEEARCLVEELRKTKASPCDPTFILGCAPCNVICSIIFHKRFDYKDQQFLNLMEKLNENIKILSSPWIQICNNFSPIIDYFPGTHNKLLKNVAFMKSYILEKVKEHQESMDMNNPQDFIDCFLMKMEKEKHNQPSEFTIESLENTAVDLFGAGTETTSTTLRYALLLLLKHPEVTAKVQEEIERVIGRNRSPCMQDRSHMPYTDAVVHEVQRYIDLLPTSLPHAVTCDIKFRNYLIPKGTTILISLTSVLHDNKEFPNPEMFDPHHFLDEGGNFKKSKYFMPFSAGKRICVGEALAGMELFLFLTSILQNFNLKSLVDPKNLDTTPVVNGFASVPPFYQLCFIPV
assay-protocol: In vitro competitive inhibition of CYP2C9
Assay type: in vitro ADME
test-readout: pKi
Answers are plain numbers, as −log10 of the molar value.

Assign pKi to the following record: CC#CC(=O)N1CCC[C@H]1c1nc(-c2ccc(C(=O)Nc3ccccn3)cc2)c2c(N)nccn12
4.95
